Molecular target: hKv7.2/hKv7.3 (Homo sapiens, UniProt O43525+O43526)
Construct: P2A self-cleaving peptide (between Kv7.3 and Kv7.2; the remnant would stay on the upstream protein) (C)
Test: Thallium influx assay for potassium channel activation
Details: HEK-hKv7.2/hKv7.3 cells; FLIPR Potassium Assay kit; AUC readout normalized to a reference compound
Provide the recorded EC50 for the entries that follow.
Numbers only; they are read as nM.

Query O=C(CC1(O)CC(F)(F)C1)N[C@@H](CC(F)F)c1cccc(OC(F)(F)F)c1 yields EC50 of 3500

Query CCC1(C(O)CC(=O)N[C@@H](COC(F)F)c2cccc(OC(F)F)c2)CC1 (single isomer, unassigned) [Example 8b] yields EC50 of 1200

Query N#CC[C@H](NC(=O)CC1(O)CC(F)(F)C1)c1cccc(OC(F)(F)F)c1 yields EC50 of 2500

Query CCC[C@H](NC(=O)C[C@H](O)C(C)(C)C)c1cccc(OC(F)F)c1 yields EC50 of 1500

Query O=C(CC1(O)CC(F)(F)C1)N[C@@H](COC1CC1)c1cccc(OC(F)F)c1 yields EC50 of 5400

Query CC[C@H](NC(=O)CC1(O)CC(F)(F)C1)c1cccc(OC(F)(F)F)c1 yields EC50 of 2100

Query CCOC[C@H](NC(=O)CC(O)C(C)(C)C)c1cccc(OC(F)(F)F)c1 (single isomer, unassigned) [Example 2b] yields EC50 of 1800

Query O=C(CC1(O)CC(F)(F)C1)N[C@@H](COC(F)F)c1cccc(OC(F)(F)F)c1 yields EC50 of 2300

* * *

Provide the recorded EC50 for the entries that follow.
Molecular target: hKv7.2/hKv7.3 (Homo sapiens, UniProt O43525+O43526)
Construct: P2A self-cleaving peptide (between Kv7.3 and Kv7.2; the remnant would stay on the upstream protein) (C)
Experiment: Thallium influx assay for potassium channel activation
Details: HEK-hKv7.2/hKv7.3 cells; FLIPR Potassium Assay kit; AUC readout normalized to a reference compound
Numbers only; they are read as nM.

Query CC1(C)CC(C(O)CC(=O)N[C@@H](COC(F)F)c2cccc(OC(F)F)c2)C1 (single isomer, unassigned) [Example 15b] yields EC50 of 650

Query CC(O)(CC(=O)N[C@@H](COC(F)F)c1cccc(OC(F)(F)F)c1)C1CC1 (single isomer, unassigned) [Example 11a] yields EC50 of 5400

Query CC(C)(C)C(O)CC(=O)N[C@@H](COC(F)F)c1cccc(OC(F)F)c1 (single isomer, unassigned) [Example 1b] yields EC50 of 420

Query CC(C)(C)[C@@H](O)CC(=O)N[C@@H](CC(F)F)c1cccc(OC(F)F)c1 [Example 22] yields EC50 of 4500

Query CCC[C@H](NC(=O)CC1(O)CC(F)(F)C1)c1cccc(OC(F)F)c1 [Example 31] yields EC50 of 2600

Query C[C@H](NC(=O)C[C@H](O)C(C)(C)C)c1cccc(OC(F)F)c1 [Example 23] yields EC50 of 1500

Query O=C(CC(O)C1(C(F)(F)F)CC1)N[C@@H](COC(F)F)c1cccc(OC(F)(F)F)c1 (single isomer, unassigned) [Example 4b] yields EC50 of 2900
